- targetEntity: GLP-1R (Homo sapiens)
- Sequence (P43220 24-463): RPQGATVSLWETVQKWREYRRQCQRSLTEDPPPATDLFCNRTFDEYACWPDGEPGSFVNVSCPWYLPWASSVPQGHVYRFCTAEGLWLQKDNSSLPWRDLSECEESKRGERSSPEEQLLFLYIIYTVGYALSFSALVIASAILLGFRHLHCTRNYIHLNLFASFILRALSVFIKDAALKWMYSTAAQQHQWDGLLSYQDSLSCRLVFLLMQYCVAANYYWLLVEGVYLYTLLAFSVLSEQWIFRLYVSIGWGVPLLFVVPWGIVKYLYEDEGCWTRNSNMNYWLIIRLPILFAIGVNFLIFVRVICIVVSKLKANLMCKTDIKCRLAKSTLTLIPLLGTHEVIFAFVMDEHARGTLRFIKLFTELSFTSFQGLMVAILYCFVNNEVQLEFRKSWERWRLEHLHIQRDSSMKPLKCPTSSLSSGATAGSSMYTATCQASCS
Lab note - cut at 1 µM for IC50: class 1 if strictly below, class 0 if not.

INSERT INTO assay_data (molecule, qualitativelabel) VALUES
  ('CCn1cncc1Cn1c(Cc2c(F)cc(-c3cccc4c3OC(C)(c3ccc(Cl)cn3)O4)cc2F)nc2cc(NC(=O)c3cc(F)c4[nH]nc(C)c4c3)ccc21 (stereo not drawn)', 'class 1'),
  ('Cc1n[nH]c2c(C)cc(NC(=O)c3ccc4c(c3)nc(CN3CCC(c5cccc(OCc6ccc(Cl)cc6F)n5)CC3)n4C[C@@H]3CCO3)cc12', 'class 0'),
  ('Cc1cc(NC(=O)c2ccc3c(c2)nc(CN2CCC(c4cccc(OCc5ccc(Cl)cc5F)n4)CC2)n3C[C@@H]2CCO2)cc2cn[nH]c12', 'class 0'),
  ('Cc1cc(NC(=O)c2ccc3c(c2)nc(CN2CC=C(c4cccc(OCc5ccc(C#N)cc5F)n4)CC2)n3C[C@@H]2CCO2)cc2c1NC(=O)C21CC1', 'class 1'),
  ('Cc1n[nH]c2c(F)cc(NC(=O)c3ccc4c(c3)nc(CN3CC=C(c5cccc(OCc6ccc(Cl)cc6F)n5)CC3)n4C[C@@H]3CCO3)cc12', 'class 0'),
  ('Cc1n[nH]c2c(C)cc(NC(=O)c3ccc4nc(CN5CC=C(c6cccc(OCc7ccc(C#N)cc7F)n6)CC5)n(CC5CCO5)c4c3)cc12 (stereo not drawn)', 'class 0');

* * *

- targetEntity: UniProt P43220
- testDetails: GLP-1R agonist cAMP stimulation assay (HTRF cAMP)
- conditionSet: HEK293 cell line expressing GLP-1 target; HTRF cAMP agonist mode, 30 min at RT
pEC50: −log10 of the molar value.
propertyMeasured: pEC50

INSERT INTO assay_data (compound, propertymeasured, readoutqualifier, readoutnumber) VALUES
  ('Cc1n[nH]c2c(F)cc(NC(=O)c3ccc4c(c3)nc(CN3CCC(c5cccc6c5OC(C)(c5ccc(C#N)cc5F)O6)CC3)n4CC3CCO3)cc12 (centres unmarked)', 'pEC50', '=', 9.21),
  ('COC(=O)C1CC(N(C)C)CN1C(=O)[C@H](C)NC(=O)c1ccc2c(c1)nc(CN1CCC(c3cccc(OCc4ccc(Cl)cc4F)n3)CC1)n2C[C@@H]1CCO1 (some centres unmarked)', 'pEC50', '<', 5.00),
  ('O=C(NCC(=O)N1C[C@@H](O)[C@@H](O)C1)c1ccc2c(c1)nc(CN1CCC(c3cccc(OCc4ccc(Cl)cc4F)n3)CC1)n2C[C@@H]1CCO1', 'pEC50', '=', 8.23),
  ('Fc1cc(Cl)ccc1COc1cccc(C2=CCN(Cc3nc4cc(-n5cnc(-c6ccn[nH]6)c5)ccc4n3C[C@@H]3CCO3)CC2)n1', 'pEC50', '=', 6.84),
  ('O=C(Nc1ccn2nccc2c1)c1ccc2c(c1)nc(CN1CCC(c3cccc(OCc4ccc(Cl)cc4F)n3)CC1)n2CC1CCO1 (centres unmarked)', 'pEC50', '=', 7.13),
  ('O=C(Nc1ccc2nc(CN3CC=C(c4cccc(OCc5ccc(Cl)cc5F)n4)CC3)n(C[C@@H]3CCO3)c2c1)c1cc(F)c2[nH]ncc2c1', 'pEC50', '=', 7.99),
  ('Cc1n[nH]c2ccc(C(=O)Nc3ccc4c(c3)nc(CN3CC=C(c5cccc(OCc6ccc(Cl)cn6)n5)CC3)n4C[C@@H]3CCO3)cc12 [Compound 391]', 'pEC50', '=', 9.04),
  ('O=C(Nc1ccc2nc(CN3CC=C(c4cccc(OCc5ccc(Cl)cc5F)n4)CC3)n(CC3CCO3)c2c1)c1ccc2[nH]nc(Cl)c2c1 (centres unmarked)', 'pEC50', '=', 8.01),
  ('Cc1cc2c(C#N)ccc(COc3cccc(C4=CCN(Cc5nc6cc(C(=O)Nc7ccc8[nH]nc(C)c8c7)ccc6n5C[C@@H]5CCO5)CC4)n3)c2o1', 'pEC50', '=', 9.11),
  ('Cc1n[nH]c2c(F)cc(NC(=O)c3ccc4nc(CN5CC=C(c6cccc(OCc7ccc(C#N)cc7F)n6)CC5)n(CC5CCO5)c4c3)cc12 (centres unmarked)', 'pEC50', '=', 8.78),
  ('Cc1n[nH]c2c(C)cc(NC(=O)c3ccc4c(c3)nc(CN3CC=C(c5cccc(OCc6cc(F)c(C#N)s6)n5)CC3)n4C[C@@H]3CCO3)cc12', 'pEC50', '=', 9.42),
  ('Cc1n[nH]c2ncc(NC(=O)c3ccc4c(c3)nc(CN3CC=C(c5cccc(OCc6ccc(Cl)cc6F)n5)CC3)n4C[C@@H]3CCO3)nc12', 'pEC50', '=', 8.03),
  ('O=C(Nc1cc(C(F)(F)F)c2c(c1)C1(CC1)C(=O)N2)c1ccc2c(c1)nc(CN1CC=C(c3cccc(OCc4ccc(Cl)cc4F)n3)CC1)n2C[C@@H]1CCO1', 'pEC50', '=', 9.11),
  ('Cc1n[nH]c2c(F)cc(C(=O)Nc3ccc4c(c3)nc(C(F)(F)N3CC=C(c5cccc(OCc6ccc(Cl)cc6F)n5)CC3)n4C[C@@H]3CCO3)cc12', 'pEC50', '=', 9.49),
  ('C=C(C)c1n[nH]c2ccc(C(=O)Nc3ccc4c(c3)nc(Cc3c(F)cc(-c5cccc6c5OC(C)(c5ccc(Cl)cc5F)O6)cc3F)n4CC3CCO3)cc12 (centres unmarked)', 'pEC50', '=', 8.40),
  ('Cc1n[nH]c2ccc(NC(=O)c3ccc4c(c3)nc(CN3CCC(c5cccc(OCc6c(F)cnc7ccccc67)n5)CC3)n4C[C@@H]3CCO3)cc12', 'pEC50', '=', 8.16),
  ('Cc1n[nH]c2c(F)cc(C(=O)Nc3ccc4c(c3)nc(Cc3cc(F)c(-c5cccc(OCc6ccc(Cl)cc6F)n5)cc3F)n4C[C@@H]3CCO3)cc12', 'pEC50', '=', 9.31),
  ('Cc1n[nH]c2ccc(NC(=O)c3ccc4c(c3)nc(CN3CC=C(c5cccc(OCc6ccc(Cl)cc6F)n5)CC3)n4C[C@@H]3CCO3)cc12', 'pEC50', '=', 9.25),
  ('Cc1n[nH]c2ccc(NC(=O)c3ccc4c(c3)nc(CN3CCC(c5cccc(OCc6ccc(C#N)c7ccccc67)n5)CC3)n4C[C@@H]3CCO3)cc12', 'pEC50', '=', 8.99),
  ('Cc1cc(NC(=O)c2ccc3c(c2)nc(CN2CCC(c4cccc(OCc5ccc(Cl)cc5F)n4)CC2)n3C[C@@H]2CCO2)cc2c(C3CC3)n[nH]c12', 'pEC50', '=', 8.98),
  ('Cc1cc(NC(=O)c2ccc3c(c2)nc(CN2CC=C(c4cccc5c4OC(C)(c4ccc(Cl)cc4F)O5)CC2)n3C[C@@H]2CCO2)cc2[nH]c(=O)[nH]c12 (some centres unmarked)', 'pEC50', '=', 9.04),
  ('Cc1cc2c(C#N)ccc(COc3cccc(C4CCN(Cc5nc6cc(NC(=O)c7ccc8[nH]nc(C(F)(F)F)c8c7)ccc6n5C[C@@H]5CCO5)CC4)n3)c2o1', 'pEC50', '=', 8.50),
  ('Cc1n[nH]c2c(F)cc(NC(=O)c3ccc4c(c3)nc(CN3CC=C(c5cccc6c5O[C@](C)(c5ccc(C#N)cc5F)O6)CC3)n4CC3CCO3)cc12 (some centres unmarked)', 'pEC50', '=', 9.72);

* * *

- targetEntity: GLP-1R (Homo sapiens)
- testDetails: GLP-1R agonist cAMP stimulation assay (HTRF cAMP)
- conditionSet: HEK293 cell line expressing GLP-1 target; HTRF cAMP agonist mode, 30 min at RT
Listed here: items and their measured EC50.
propertyMeasured: EC50

INSERT INTO results (molecule, result) VALUES
  ('Cc1n[nH]c2ccc(NC(=O)c3ccc4c(c3)nc(CN3CCC(c5cccc(OCc6ccc(Cl)cc6F)n5)CC3)n4C[C@@H]3CCO3)cc12 [Compound 88]', '4.45 nM'),
  ('O=C(Nc1ccc2c(c1)nc(C1CC13CCC(c1cccc(OCc4ccc(Cl)cc4F)n1)CC3)n2CC1CCO1)c1ccc2[nH]nc(C3CC3)c2c1 (stereo not drawn) [Compound 252]', '1.03 nM'),
  ('Cc1cc(NC(=O)c2ccc3c(c2)nc(CN2CCC(c4cccc(OCc5ccc(Cl)cc5F)n4)CC2)n3C[C@@H]2CCO2)cc2c(C(F)F)n[nH]c12 [Compound 116]', '0.92 nM'),
  ('CC1(c2ccc(Cl)cc2F)Oc2cccc(C3CCN(Cc4nc5cc(C(=O)Nc6ccc7[nH]nc(C(F)(F)F)c7c6)ccc5n4CC4CCO4)CC3)c2O1 (stereo not drawn) [Compound 333]', '2.19 nM'),
  ('Cc1n[nH]c2cnc(NC(=O)c3ccc4c(c3)nc(CN3CC=C(c5cccc(OCc6ccc(Cl)cc6F)n5)CC3)n4C[C@@H]3CCO3)nc12 [Compound 168]', '10.5 nM'),
  ('Cc1n[nH]c2c(Cl)cc(NC(=O)c3ccc4c(c3)nc(CN3CCC(c5cccc(OCc6ccc(Cl)cc6F)n5)CC3)n4C[C@@H]3CCO3)cc12 [Compound 110]', '4.45 nM');
